B1: Twister Ribozyme (parent)
chain: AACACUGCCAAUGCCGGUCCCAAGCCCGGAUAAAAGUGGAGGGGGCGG

# Variants of: B1
# protocol notes: self-cleavage, relative activity (ratio to wild type); higher = more cleavage; co-transcriptional
readout label: self-cleavage
Keep the answer to the number alone.

> print(dat)
   variant.designation  readout.label  endpoint.value
1            G39U G42A  self-cleavage           0.104

Please give the measured self-cleavage for this variant: A11C A34C
0.049

// repeat for A4G U6A and report
0.866

Okay, and C19A G45U ?
0.257

Would you mind doing G17U C46U as well?
0.625

Next entry: A1G U31A
0.24

Param item: A22G C25G
0.0838

Thanks! And C3U C5A ?
0.219

Now the same for G16U C46A
0.662

How about this variant: G13C A34C
0.0766

And for G29C A33C ?
0.545

Also C14G A40G ?
0.0712

Now consider A33U G43A .
0.233

Moving on to A1G A2U
0.19

Do the same for G17C A23G please
0.0841

Recorded values, source the RNAGym collection of RNA variant scans (doi:10.7554/elife.80360).
